# Tested on: Noggin (protein binding on small-molecule microarray)
# TEST_METHOD_NOTES: Noggin binders on small-molecule microarray, primary screen, biochemical, 635/667 nm fluorescence (AID 1095);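 further: score merges 667 nm feature fluorescence with signal to noise over triplicate slides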
# SETUP_CONDITIONS: 635 nm fluorescence, higher = more signal
Cut-off 0.2 on composite z-score, inclusive. At or above means Condition met; below means Condition not met.

Record excerpt, results attached:
INSERT INTO results (molecule, assigned_label) VALUES
  ('C=CCC(OC(C)=O)[C@@H]1[C@@H](N(Cc2cccc3ccccc23)C(=O)c2ccc(-c3ccccc3)cc2)c2cc(OCCCO)ccc2N1C(=O)Cc1ccc(OC)cc1 (stereo partly specified)', 'Condition not met'),
  ('C=CC[C@@]1(C(N)=O)N=C(c2ccc(OCCCO)cc2)O[C@@H]1c1ccccc1CN=[N+]=[N-]', 'Condition not met'),
  ('O=C1O[C@H](c2ccccc2)[C@H](c2ccccc2)N2[C@H]1[C@@H](C(=O)Nc1nc3ccccc3s1)[C@]1(C(=O)Nc3ccc(C#CC4(O)CCCCCC4)cc31)[C@H]2c1ccc(OCCO)cc1', 'Condition met');

# bool: composite z-score of "C=CC[C@@]1(C(=O)N(C)C)N=C(c2ccc(OCCCO)cc2)O[C@@H]1c1ccccc1N=[N+]=[N-]" >= 0.2
Condition met

# bool: composite z-score of "COc1ccc(CCNC(=O)[C@@]2(C)c3ccccc3C(=O)N(Cc3cc(F)cc(C(F)(F)F)c3)[C@H]2c2ccc(CO)cc2)cc1" >= 0.2
Condition not met

# bool: composite z-score of "CCc1oc(CC[C@@H](CO)NC(=O)NCCn2cc(C3(O)CCCCC3)nn2)c(C(=O)OC)c1C(=O)OC" >= 0.2
Condition met

###

# TEST_METHOD_NOTES: RPMI8226 myeloma cell viability, profiling panel, resazurin fluorescence, basal, 24 h, PK04 Diversity Set (AID 1180);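 further: RPMI8826 multiple myeloma cell line at 5000 cells per well; test concentration not given here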
# SETUP_CONDITIONS: higher = more signal
Listing of entries alongside the reported z-score.
Number, no unit, nothing else.

Previously resolved entries follow.
INSERT INTO measurements (compound, observable, test_value) VALUES
  ('CN(C)CCCCCCNC(=O)[C@@H]1C[C@@H]2C(=O)N[C@@H](CCCCN)C(=O)N2[C@@H]1c1cccc(OCCO)c1', 'z-score', 0.393),
  ('COC(=O)C(CC#Cc1ccc2c(c1)[C@]1(C(=O)N2)[C@H](c2ccc(O)cc2)N2[C@H](c3ccccc3)[C@H](c3ccccc3)OC(=O)[C@H]2[C@@H]1C(=O)Nc1nc2ccccc2s1)C(=O)OC', 'z-score', 0.12),
  ('C=CCNC(=O)[C@H]1[C@@H]2C(=O)O[C@@H](c3ccccc3)[C@@H](c3ccccc3)N2[C@@H](c2ccc(OCCO)cc2)[C@]12C(=O)N(C(=O)OCCOC)c1ccccc12', 'z-score', -0.0749),
  ('O=C1[C@H]2C=C(Br)[C@H](C[C@@H]2c2ccccc2)[C@@]12CO2', 'z-score', -0.579),
  ('COC(=O)[C@@]1(Cc2ccc(OC)cc2)[C@H]2c3cc(C(=O)N4CCCC4)n(Cc4ccccc4)c3C[C@H]2CN1C(=O)c1ccccc1', 'z-score', -3.16),
  ('CCOC(=O)C[C@H]1[C@H](OC(=O)Cc2ccc3c(c2)OCO3)[C@@H](NC(=O)c2ccc(-c3ccccc3)cc2)c2cc(OCCCO)ccc2N1C(=O)c1ccc2ccccc2n1', 'z-score', 0.356),
  ('CC(=O)NCCCC[C@@H]1NC(=O)[C@@H]2C[C@H](C(=O)NCCCCCCNC(=O)CS)[C@H](c3cccc(OCCO)c3)N2C1=O', 'z-score', -1.05),
  ('COCCOC(=O)N1C(=O)[C@@]2(c3ccccc31)[C@H](c1ccc(O)cc1)N1[C@H](c3ccccc3)[C@H](c3ccccc3)OC(=O)[C@H]1[C@@H]2C(=O)NC[C@H](O)c1ccccc1', 'z-score', -0.199);

Could you now look at the following compound, please?
Would you kindly share the measured z-score for "C=C(COC)/C(=C/C[C@@H](OC(C)=O)c1ccc(CO)o1)c1cnc2ccccc2c1" ?
0.47

###

# TEST_METHOD_NOTES: MM1S cell viability effects, profiling panel, calcein-AM fluorescence, 48 h, basal (AID 1165);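 further: viability of MM1S multiple myeloma cells under basal unstimulated conditions; test concentration not given here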
# SETUP_CONDITIONS: higher = more signal
Cut-off -0.3 on z-score, inclusive. At or above means true; below means false.

Record excerpt, results attached:
INSERT INTO assay_data (compound, assigned_label) VALUES
  ('CC[C@@H]1C=C(C(=O)O)[C@H](c2ccco2)N1S(=O)(=O)c1ccc(C)cc1', 'true'),
  ('O=C1O[C@@H](c2ccccc2)[C@@H](c2ccccc2)N2[C@@H](c3ccccc3OCCO)[C@]3(C(=O)Nc4ccc(C#CC5=CCCCC5)cc43)[C@@H](C(=O)Nc3nc4ccccc4s3)[C@H]12', 'false'),
  ('CS(=O)(=O)CCOC(=O)C1=CC(CCCO)=CC(c2ccc(CN3CCCC3)cc2)N(Cc2cc3c(cc2Br)OCO3)C=C1C(=O)OCCS(C)(=O)=O (stereo unspecified)', 'false'),
  ('O=C1O[C@H](c2ccccc2)[C@H](c2ccccc2)N2[C@H]1[C@@H](C(=O)Nc1nc3ccccc3s1)[C@]1(C(=O)Nc3ccc(C#CCCO)cc31)[C@H]2c1ccc(OCCO)cc1', 'true'),
  ('CCN(CC)c1ccc(N2CC=CC34O[C@@H]5/C=C\CCC(C)OC(=O)C5[C@H]3C(=O)N(C(CO)C(C)C)[C@@H]4C2=O)cc1 (stereo partly specified)', 'true');

// next entry
# bool: z-score of "COCCCNC(=O)[C@@]1(Cc2ccccc2N=[N+]=[N-])N=C(c2ccc(OCCCO)cc2)O[C@H]1c1ccccc1N=[N+]=[N-]" >= -0.3
false

###

# TEST_METHOD_NOTES: basal MM1S mitochondrial membrane potential changes, profiling panel, cell-based, JC-1 fluorescence, 24 h, 100 nL compound (AID 1170); further: test concentration not given here
# SETUP_CONDITIONS: higher = more signal
Cut-off -1 on z-score, inclusive. At or above means true (1); below means false (0).

Record excerpt, results attached:
INSERT INTO results (compound, assigned_label) VALUES
  ('OC([C@@H]1CC(c2ccccc2)=NO1)[C@H]1CC(c2ccccc2)=NO1 (stereo not given in full)', 'true (1)'),
  ('O=C1[C@H]2C=C(Br)[C@H](C[C@@H]2c2ccccc2)[C@@]12CO2', 'true (1)'),
  ('C=CC[C@@]1(C(=O)NCc2ccccc2)N=C(c2ccc(OCCCO)cc2)O[C@@H]1c1ccccc1N=[N+]=[N-]', 'true (1)');

# bool: z-score of "[N-]=[N+]=Nc1ccccc1C[C@@]1(C(=O)NCCN2CCOCC2)N=C(c2ccc(OCCCO)cc2)O[C@@H]1c1ccccc1" >= -1
false (0)

# bool: z-score of O=C1OCCC/C=C\[C@H]2OC34C=CCN(Cc5ccccc5)C(=O)[C@H]3N(CCCCCCO)C(=O)[C@@H]4C12 (stereo not given in full) >= -1
false (0)

# bool: z-score of "CC(C)(C)OC(=O)CC[C@@]1(C(=O)NCCN2CCOCC2)N=C(c2ccc(OCCCO)cc2)O[C@@H]1c1ccccc1N=[N+]=[N-]" >= -1
true (1)

# bool: z-score of CN1C(=O)C2C=CC(C(O)C3CC=CCC3)N(NC(=O)OC(C)(C)C)C2C1=O (stereo not given) >= -1
true (1)

# bool: z-score of "CN(C)C(=O)[C@@]1(Cc2ccccc2)N=C(c2ccc(OCCCO)cc2)O[C@H]1c1ccccc1N=[N+]=[N-]" >= -1
false (0)

# bool: z-score of O=C1NC(=O)C2C1C=CC(C(O)Cc1ccccc1)N2Nc1ccc(Cl)cc1Cl (stereo not given) >= -1
true (1)

# bool: z-score of "C=CCOC(=O)[C@H]1[C@@H]2C(=O)O[C@@H](c3ccccc3)[C@@H](c3ccccc3)N2[C@@H](c2ccc(OCCOC(=O)[C@@H]3C[C@@H]4C(=O)N5CCC[C@H]5C(=O)N4[C@@H]3c3cccc(OCCO)c3)cc2)[C@]12C(=O)Nc1ccccc12" >= -1
true (1)

# bool: z-score of O=C1OCCC/C=C\[C@H]2OC34C=CCN(Cn5nnc6ccccc65)C(=O)[C@H]3N(CCCCCCO)C(=O)[C@@H]4C12 (stereo not given in full) >= -1
false (0)

# bool: z-score of "O=C1O[C@H](c2ccccc2)[C@H](c2ccccc2)N2[C@H]1[C@@H](C(=O)N1CCN(c3ncccn3)CC1)[C@]1(C(=O)Nc3ccc(C#CC4=CCCCC4)cc31)[C@H]2c1ccc(O)cc1" >= -1
true (1)

# bool: z-score of [N-]=[N+]=Nc1ccccc1C[C@]1(C(=O)NCC(O)CO)N=C(c2ccc(OCCCO)cc2)O[C@H]1c1ccccc1N=[N+]=[N-] (stereo not given in full) >= -1
false (0)

# bool: z-score of "COc1ccc(CCNC(=O)[C@@H]2c3ccccc3C(=O)N(C3Cc4ccccc4C3)[C@H]2c2ccc(CO)cc2)cc1" >= -1
true (1)

# bool: z-score of "COC(=O)[C@@]1(Cc2ccc(F)cc2)[C@H]2c3cc(C(=O)N(C)C)n(CC4CC4)c3C[C@H]2CN1C(=O)c1ccccc1" >= -1
false (0)

Data origin: PubChem BioAssay
